Target: MAP3K9 (human)
Assay: radiometric filter-binding kinase assay, Kinase HotSpot
Details: compound 0.5 µM; ATP 10 µM
One threshold, 90%, splits the recorded residual activity values: lower ones are condition met, equal or higher ones are condition not met.

structure.notation | study.system | class.assignment
COc1cc2ncnc(Nc3ccc(OCc4ccccc4)cc3)c2cc1OC | MAP3K9 (human) | condition not met
Cc1nc(-c2ccccc2)c(-c2ccncc2)o1 | MAP3K9 (human) | condition met
O=C1c2ccccc2-c2nc3nnnn3nc21 | MAP3K9 (human) | condition met
c1ccc2c(-c3ccncc3)c[nH]c2c1 | MAP3K9 (human) | condition met
CS(=O)(=O)CCNCc1ccc(-c2ccc3ncnc(Nc4ccc(OCc5cccc(F)c5)c(Cl)c4)c3c2)o1 | MAP3K9 (human) | condition not met
Fc1ccc(-c2nc3n(c2-c2ccncc2)CCS3)cc1 | MAP3K9 (human) | condition met
O=C1Nc2ccc(Br)cc2/C1=C\c1cc2c([nH]1)CCCC2 | MAP3K9 (human) | condition met
O=C1C(Cl)=C(N2C(=O)CCC2=O)C(=O)c2ccccc21 | MAP3K9 (human) | condition not met
O=C(c1cc2cc(O)ccc2[nH]1)c1cc2cc(O)ccc2[nH]1 | MAP3K9 (human) | condition met
Cc1cccc(-c2nc(C(C)(C)C)[nH]c2-c2ccc3c(c2)OCO3)n1 | MAP3K9 (human) | condition not met
CN(C)CCCn1cc(C2=C(c3c[nH]c4ccccc34)C(=O)NC2=O)c2ccccc21 | MAP3K9 (human) | condition met
Cc1cncc2cccc(S(=O)(=O)N3CCCN(C(=O)CN)C[C@H]3C)c12 | MAP3K9 (human) | condition not met
NC(=O)c1cccc(-c2cc(Nc3ccc(OC(F)(F)F)cc3)ncn2)c1 | MAP3K9 (human) | condition not met
C[C@@H]1CCN(C(=O)CC#N)C[C@@H]1N(C)c1ncnc2[nH]ccc12 | MAP3K9 (human) | condition not met
COc1cc(Nc2c(C#N)cnc3cc(OCCCN4CCN(C)CC4)c(OC)cc23)c(Cl)cc1Cl | MAP3K9 (human) | condition met

====

Molecular target: MST4 (human)
Assay: radiometric filter-binding kinase assay, Kinase HotSpot
Conditions: compound 0.5 µM; ATP 10 µM
Each record here notes measured residual activity.
endpoint: residual activity (%)

structure.notation | test.value
CN(C)c1ccc(/C=C2\C(=O)Nc3ccccc32)cc1 | 90.9
Cn1c2ccccc2c2c3c(c4c5ccccc5n(CCC#N)c4c21)CNC3=O | 89.8
O=C1c2ccccc2-c2nc3nnnn3nc21 | 91.8
COc1ccc2c(c1)/C(=C/c1cnc[nH]1)C(O)=N2 | 88.5
COc1cc2ncnc(Nc3ccc(OCc4ccccc4)cc3)c2cc1OC | 91.6

====

Some compounds, each annotated with its measured residual activity.
Target: LTK (human) (UniProt P29376)
Sequence (P29376 whole entry, looked up): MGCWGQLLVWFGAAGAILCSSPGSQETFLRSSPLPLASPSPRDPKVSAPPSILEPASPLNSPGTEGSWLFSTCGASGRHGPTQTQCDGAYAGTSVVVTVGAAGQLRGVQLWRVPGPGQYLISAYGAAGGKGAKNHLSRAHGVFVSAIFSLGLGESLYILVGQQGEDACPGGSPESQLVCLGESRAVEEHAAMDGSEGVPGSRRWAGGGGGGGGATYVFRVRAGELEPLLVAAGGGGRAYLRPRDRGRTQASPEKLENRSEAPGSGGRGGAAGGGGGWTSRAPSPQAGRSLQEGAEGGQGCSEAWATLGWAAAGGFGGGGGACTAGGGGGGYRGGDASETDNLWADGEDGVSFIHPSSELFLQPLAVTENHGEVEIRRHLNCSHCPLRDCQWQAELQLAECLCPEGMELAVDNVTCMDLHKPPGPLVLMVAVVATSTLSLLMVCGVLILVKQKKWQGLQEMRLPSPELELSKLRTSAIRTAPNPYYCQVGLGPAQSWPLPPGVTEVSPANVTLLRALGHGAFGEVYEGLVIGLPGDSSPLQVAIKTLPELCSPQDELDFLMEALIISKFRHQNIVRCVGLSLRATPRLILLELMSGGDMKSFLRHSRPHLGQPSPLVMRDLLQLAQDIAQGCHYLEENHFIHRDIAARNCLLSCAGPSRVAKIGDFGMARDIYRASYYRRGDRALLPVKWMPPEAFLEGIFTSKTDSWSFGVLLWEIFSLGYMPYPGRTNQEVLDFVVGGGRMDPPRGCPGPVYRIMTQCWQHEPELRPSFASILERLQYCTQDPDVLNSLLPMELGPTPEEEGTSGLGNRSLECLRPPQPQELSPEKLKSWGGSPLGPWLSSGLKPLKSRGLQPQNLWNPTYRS
Assay: radiometric filter-binding kinase assay, Kinase HotSpot
Settings: compound 0.5 µM; ATP 10 µM

structure.notation | unit.descriptor | residual activity
N#Cc1c[nH]c2c[nH]/c(=N\Cc3cccnc3)cc2/c1=N\c1ccc(F)c(Cl)c1 | % | 95.6
O=C1NC(=O)c2c1c1c3ccccc3[nH]c1n1cncc21 | % | 80.8
COc1cc2ncnc(Nc3ccc(Oc4ccccc4)cc3)c2cc1OC | % | 98.3
O=C1c2ccccc2-c2nc3nnnn3nc21 | % | 177
COc1ccc(C(=O)Nc2sc3c(c2C(N)=O)CCCC3)cc1OC | % | 40.5
COc1ccc2c(c1)/C(=C/c1cnc[nH]1)C(O)=N2 | % | 93.6
Cc1nc(-c2ccccc2)c(-c2ccncc2)o1 | % | 107
CO[C@@H]1[C@H](N(C)C(=O)c2ccccc2)C[C@H]2O[C@]1(C)n1c3ccccc3c3c4c(c5c6ccccc6n2c5c31)C(=O)NC4 | % | 50.1
COc1ccc(S(=O)(=O)N(CCO)c2ccccc2CN(C)C/C=C/c2ccc(Cl)cc2)cc1 | % | 97.9
Cc1cncc2cccc(S(=O)(=O)N3CCCN(C(=O)CN)C[C@H]3C)c12 | % | 93
O=C(c1cc2cc(O)ccc2[nH]1)c1cc2cc(O)ccc2[nH]1 | % | 91.6

====

Biological target: SRMS (human) (UniProt Q9H3Y6)
Sequence (Q9H3Y6 whole entry, looked up): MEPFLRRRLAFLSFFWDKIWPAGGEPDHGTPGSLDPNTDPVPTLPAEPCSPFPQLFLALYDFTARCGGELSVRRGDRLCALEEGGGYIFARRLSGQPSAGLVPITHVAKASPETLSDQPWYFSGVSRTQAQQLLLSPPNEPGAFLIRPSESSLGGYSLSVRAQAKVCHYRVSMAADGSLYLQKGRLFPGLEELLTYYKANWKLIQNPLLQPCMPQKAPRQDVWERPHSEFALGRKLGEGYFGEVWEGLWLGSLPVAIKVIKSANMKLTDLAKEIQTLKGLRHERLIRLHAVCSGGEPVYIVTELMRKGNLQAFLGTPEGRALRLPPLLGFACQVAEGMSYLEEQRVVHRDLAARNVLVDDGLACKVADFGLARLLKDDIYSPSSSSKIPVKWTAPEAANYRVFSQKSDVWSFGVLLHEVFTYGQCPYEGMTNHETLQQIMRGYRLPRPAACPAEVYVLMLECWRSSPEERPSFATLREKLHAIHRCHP
Test: radiometric filter-binding kinase assay, Kinase HotSpot
Conditions: compound 0.5 µM; ATP 10 µM

structure.notation | unit.descriptor | residual activity
Cc1cncc2cccc(S(=O)(=O)N3CCCN(C(=O)CN)C[C@H]3C)c12 | % | 106
COc1ccc(S(=O)(=O)N(CCO)c2ccccc2CN(C)C/C=C/c2ccc(Cl)cc2)cc1 | % | 101
CN(C)CCCn1cc(C2=C(c3c[nH]c4ccccc34)C(=O)NC2=O)c2ccccc21 | % | 104
Cc1nc(-c2ccccc2)c(-c2ccncc2)o1 | % | 102
NC(=O)c1cccc(-c2cc(Nc3ccc(OC(F)(F)F)cc3)ncn2)c1 | % | 93.4
CCCCc1c(-c2ccc(OC)cc2)[nH]c2nccnc12 | % | 96.7
COc1cc2ncnc(Nc3ccc(OCc4ccccc4)cc3)c2cc1OC | % | 104
COc1ccc2c(c1)/C(=C/c1cnc[nH]1)C(O)=N2 | % | 103

====

Molecular target: CAMK1D (human)
Assay: radiometric filter-binding kinase assay, Kinase HotSpot
Details: compound 0.5 µM; ATP 10 µM
Consider the following molecules and their measured residual activity readings.
endpoint: residual activity (%)

structure.notation | unit.descriptor | test.value
CN(C)c1ccc(/C=C2\C(=O)Nc3ccccc32)cc1 | % | 98.8
Cn1c2ccccc2c2c3c(c4c5ccccc5n(CCC#N)c4c21)CNC3=O | % | 82.4
COc1ccc2c(c1)c(C1=C(c3c[nH]c4ccccc34)C(=O)NC1=O)cn2CCCN(C)C | % | 73.3
Ic1cccc(CSc2nnc(-c3ccncc3)o2)c1 | % | 101
CN(C)S(=O)(=O)c1ccc2c(c1)/C(=C/c1cc3c([nH]1)CCCC3)C(=O)N2 | % | 99.8
Fc1ccc(-c2nc3n(c2-c2ccncc2)CCS3)cc1 | % | 100
c1ccc2c(-c3ccncc3)c[nH]c2c1 | % | 107
O=C1Nc2ccc(Br)cc2/C1=C\c1cc2c([nH]1)CCCC2 | % | 96.8
COc1ccc(Cl)cc1NC(=O)Nc1cc(C)nc2ccccc12 | % | 99.9
COc1ccc(S(=O)(=O)N(CCO)c2ccccc2CN(C)C/C=C/c2ccc(Cl)cc2)cc1 | % | 103
COc1cc2ncnc(Nc3ccc(OCc4ccccc4)cc3)c2cc1OC | % | 104
CC(C)(C)c1cc(C=C(C#N)C#N)cc(Br)c1O | % | 111
O=C1C(Cl)=C(N2C(=O)CCC2=O)C(=O)c2ccccc21 | % | 102
O=C1c2ccccc2-c2nc3nnnn3nc21 | % | 93.9
Cc1cncc2cccc(S(=O)(=O)N3CCCN(C(=O)CN)C[C@H]3C)c12 | % | 104

====

Biological target: FLT3 (human)
Assay: radiometric filter-binding kinase assay, Kinase HotSpot
Settings: compound 0.5 µM; ATP 10 µM
residual activity of 90% or higher: class 1. Under 90%: class 0.

structure.notation | study.system | class.assignment
COc1ccc(C(=O)Nc2sc3c(c2C(N)=O)CCCC3)cc1OC | FLT3 (human) | class 0
O=C1Nc2ccc(Br)cc2/C1=C\c1cc2c([nH]1)CCCC2 | FLT3 (human) | class 0
N#Cc1c[nH]c2c[nH]/c(=N\Cc3cccnc3)cc2/c1=N\c1ccc(F)c(Cl)c1 | FLT3 (human) | class 0
COc1cc2ncnc(Nc3ccc(OCc4ccccc4)cc3)c2cc1OC | FLT3 (human) | class 0
O=C1C(Cl)=C(N2C(=O)CCC2=O)C(=O)c2ccccc21 | FLT3 (human) | class 1
CN(C)c1ccc(/C=C2\C(=O)Nc3ccccc32)cc1 | FLT3 (human) | class 0
N#C/C(=C\c1ccc(O)c(O)c1)C(=O)NCc1ccccc1 | FLT3 (human) | class 1
COc1cc2ncnc(Nc3ccc(Oc4ccccc4)cc3)c2cc1OC | FLT3 (human) | class 0
NC(=O)c1cccc(-c2cc(Nc3ccc(OC(F)(F)F)cc3)ncn2)c1 | FLT3 (human) | class 1

====

Target: CAMK1 (human) (UniProt Q14012)
Sequence (Q14012 whole entry, looked up): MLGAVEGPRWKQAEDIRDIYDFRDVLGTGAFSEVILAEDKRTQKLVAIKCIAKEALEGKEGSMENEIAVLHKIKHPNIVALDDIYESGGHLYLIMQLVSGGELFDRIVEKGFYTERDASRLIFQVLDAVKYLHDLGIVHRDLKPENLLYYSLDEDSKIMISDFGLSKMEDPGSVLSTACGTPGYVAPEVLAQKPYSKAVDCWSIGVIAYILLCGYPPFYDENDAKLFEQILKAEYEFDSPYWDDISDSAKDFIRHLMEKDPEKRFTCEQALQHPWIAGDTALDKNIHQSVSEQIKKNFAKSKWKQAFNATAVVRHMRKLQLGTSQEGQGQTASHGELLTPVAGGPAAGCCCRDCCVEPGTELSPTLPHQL
Assay: radiometric filter-binding kinase assay, Kinase HotSpot
Conditions: compound 0.5 µM; ATP 10 µM
Catalogue of residual activity readings, one per entry.

structure.notation | unit.descriptor | residual activity
O=C(c1cc2cc(O)ccc2[nH]1)c1cc2cc(O)ccc2[nH]1 | % | 97.4
Cc1cncc2cccc(S(=O)(=O)N3CCCN(C(=O)CN)C[C@H]3C)c12 | % | 102
CN(C)S(=O)(=O)c1ccc2c(c1)/C(=C/c1cc3c([nH]1)CCCC3)C(=O)N2 | % | 107
N#Cc1c[nH]c2c[nH]/c(=N\Cc3cccnc3)cc2/c1=N\c1ccc(F)c(Cl)c1 | % | 99.1

====

// reported residual activity for each item listed
Molecular target: PIM3 (human) (UniProt Q86V86)
Assay: radiometric filter-binding kinase assay, Kinase HotSpot
Details: compound 0.5 µM; ATP 10 µM

structure.notation | residual activity
CN(C)S(=O)(=O)c1ccc2c(c1)/C(=C/c1cc3c([nH]1)CCCC3)C(=O)N2 | 117%
COc1ccc(Cl)cc1NC(=O)Nc1cc(C)nc2ccccc12 | 97.6%
Cc1cncc2cccc(S(=O)(=O)N3CCCN(C(=O)CN)C[C@H]3C)c12 | 103%
O=C1c2ccccc2-c2nc3nnnn3nc21 | 93.3%
Cc1nc(-c2ccccc2)c(-c2ccncc2)o1 | 106%
C[C@@H]1CCN(C(=O)CC#N)C[C@@H]1N(C)c1ncnc2[nH]ccc12 | 96.5%
Cc1cccc(-c2nc(C(C)(C)C)[nH]c2-c2ccc3c(c2)OCO3)n1 | 106%
O=C1Nc2ccc(Br)cc2/C1=C\c1cc2c([nH]1)CCCC2 | 87.5%
CCCCc1c(-c2ccc(OC)cc2)[nH]c2nccnc12 | 90.9%
Fc1ccc(-c2nc3n(c2-c2ccncc2)CCS3)cc1 | 105%
O=C(c1cc2cc(O)ccc2[nH]1)c1cc2cc(O)ccc2[nH]1 | 98.9%
CN(C)c1ccc(/C=C2\C(=O)Nc3ccccc32)cc1 | 102%
Ic1cccc(CSc2nnc(-c3ccncc3)o2)c1 | 106%
CS(=O)(=O)CCNCc1ccc(-c2ccc3ncnc(Nc4ccc(OCc5cccc(F)c5)c(Cl)c4)c3c2)o1 | 93.7%
COc1ccc(S(=O)(=O)N(CCO)c2ccccc2CN(C)C/C=C/c2ccc(Cl)cc2)cc1 | 105%
COc1cc2ncnc(Nc3ccc(Oc4ccccc4)cc3)c2cc1OC | 96.9%
COc1ccc2c(c1)/C(=C/c1cnc[nH]1)C(O)=N2 | 99%
